# Study system: Estrogen Receptor-Alpha (ERα) (Homo sapiens)
# Construct: endogenous in cells; host or cells: MCF-7 (MCF7) cells
# Sequence (P03372 whole entry): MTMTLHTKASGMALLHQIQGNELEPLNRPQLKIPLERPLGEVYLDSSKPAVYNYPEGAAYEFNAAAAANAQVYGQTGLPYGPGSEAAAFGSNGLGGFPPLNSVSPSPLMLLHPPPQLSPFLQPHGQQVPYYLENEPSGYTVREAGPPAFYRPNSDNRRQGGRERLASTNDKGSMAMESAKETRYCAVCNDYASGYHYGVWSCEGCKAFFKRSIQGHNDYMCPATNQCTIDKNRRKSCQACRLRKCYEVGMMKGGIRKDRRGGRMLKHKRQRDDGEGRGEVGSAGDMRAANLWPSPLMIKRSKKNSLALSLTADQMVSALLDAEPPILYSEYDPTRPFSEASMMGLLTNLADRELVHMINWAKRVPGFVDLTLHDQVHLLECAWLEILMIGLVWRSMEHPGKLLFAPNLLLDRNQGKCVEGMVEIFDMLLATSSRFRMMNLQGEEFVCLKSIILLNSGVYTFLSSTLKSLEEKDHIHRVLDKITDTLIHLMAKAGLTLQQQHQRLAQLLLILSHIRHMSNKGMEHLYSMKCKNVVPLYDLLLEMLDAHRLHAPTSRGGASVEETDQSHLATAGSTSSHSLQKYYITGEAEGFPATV
# Test: Estrogen Receptor-Alpha (ERα) degradation assay in MCF-7 cells (western blot / In-Cell Western)
# Format: cell-based
# Condition: MCF7, read-out: ER Dmax
For each record, write down the corresponding Dmax.

Solved cases below.
>>> value("COc1cc(N2CCN(CCC3CCN(c4ccc([C@H]5c6ccc(O)cc6CC[C@H]5c5ccccc5)cc4)CC3)CC2)cc2c1C(=O)N(C1CCC(=O)NC1=O)C2 (stereo partly drawn) [compound 9]")
"50 to 75%"
>>> value("O=C1CCC(N2Cc3cc(N4CCN(CCCCCOc5ccc([C@@H]6c7ccc(O)cc7CC[C@@H]6c6ccccc6)cc5)CC4)cc(OC(F)F)c3C2=O)C(=O)N1 (stereo partly drawn) [compound 20]")
"50 to 75%"
>>> value("O=C1CCC(N2Cc3cc(N4CCN(CCC5(O)CC(Oc6ccc([C@@H]7c8ccc(O)cc8CC[C@@H]7c7ccccc7)cc6)C5)CC4)cc(OC(F)F)c3C2=O)C(=O)N1 (stereo partly drawn) [compound 27]")
"50 to 75%"

Below are 3 compounds. Give each one its Dmax.
1. O=C1CCC(N2C(=O)c3ccc(N4CCN(CC5CCN(c6ccc([C@@H]7c8ccc(O)cc8CC[C@@H]7c7ccccc7)cc6)CC5)CC4)cc3C23CC3)C(=O)N1 (stereo partly drawn) [compound 29]
2. COc1cc(N2CCN(CCCCCOc3ccc([C@@H]4c5ccc(O)cc5CC[C@@H]4c4ccccc4)cc3)CC2)cc2c1C(=O)N(C1CCC(=O)NC1=O)C2 (stereo partly drawn) [compound 2]
3. COc1cc(N2CCN(CC3CCN(c4c(F)cc([C@@H]5c6ccc(O)cc6CC[C@@H]5c5ccccc5)cc4F)CC3)CC2)cc2c1C(=O)N(C1CCC(=O)NC1=O)C2 (stereo partly drawn) [compound 19]

(A)
< 50%
≥ 75%
≥ 75%

====

For each record, write down the corresponding IC50.
# Tested on: estrogen responsive element/promoter/luciferase reporter gene
# Test: ERE Luciferase Assay in T47D-KBluc cells
# Type: cell-based, human
# Condition: Homo sapiens, 24 hours, luciferase activity, read-out: Target Engagement IC50
Give bare numbers, in nM.

Solved cases below.
>>> value("COc1cc(N2CCN(CC3CCN(c4c(F)cc([C@H]5c6ccc(O)cc6CC[C@H]5c5ccccc5)cc4F)CC3)CC2)cc2c1C(=O)N(C1CCC(=O)NC1=O)C2 (stereo partly shown) [compound 18]")
17.5
>>> value("COCCOCCOc1c(CCN2CCCN(CCCCOc3ccc([C@@H]4c5ccc(O)cc5CC[C@@H]4c4ccccc4)cc3)CC2)ccc2c1CN([C@H]1CCC(=O)NC1=O)C2=O [compound 8]")
0.34
>>> value("O=C1CCC(N2C(=O)c3ccc(N4CCN(CC5CCN(c6ccc([C@@H]7c8ccc(O)cc8CC[C@@H]7c7ccccc7)cc6F)CC5)CC4)cc3C23CC3)C(=O)N1 (stereo partly shown) [compound 30]")
2.1
>>> value("COc1cc(N2CCN(CC3CCN(c4ccc([C@@H]5c6ccc(O)cc6CC[C@@H]5c5ccccc5)cc4)CC3)CC2)cc2c1C(=O)N(C1CCC(=O)NC1=O)C2 (stereo partly shown) [compound 15]")
1.7

Query compound follows.
(Q) // fetch IC50 given entry O=C1CCC(N2Cc3cc(N4CCN(CCC5(O)CC(Oc6ccc([C@@H]7c8ccc(O)cc8CC[C@@H]7c7ccccc7)cc6)C5)CC4)cc(OC(F)F)c3C2=O)C(=O)N1 (stereo partly shown) [compound 27]
(A) 0.5
